Data credit: the supplement of paper PMC10646978

tested on: RAW-Dual (murine macrophage reporter line); experiment: IRF reporter (Lucia luciferase) activity fold change vs agonist alone; higher = enhanced IRF activity; conditions: modulator concentration 10 µM; agonist: LPS 0.1 ug/mL
For each of the molecules below, state its IRF reporter.
Respond with the number and no other words.

Looking for the measured IRF reporter of Cc1occc1C(=O)NN=Cc1cc([N+](=O)[O-])ccc1O , can you help?
1.23

Looking for the measured IRF reporter of CN(C)C(=O)COC(=O)Cc1ccc(OC(=O)c2ccc(NC(=N)N)cc2)cc1.CS(=O)(=O)O , can you help?
1.21

Looking for the measured IRF reporter of Cl.Fc1ccc([C@@H]2CCNC[C@H]2COc2ccc3c(c2)OCO3)cc1 , can you help?
1.05

Looking for the measured IRF reporter of COc1ccc(S(=O)(=O)N(CC(=O)Nc2ccccc2F)c2ccc(C)cc2)cc1OC , can you help?
1.54

Looking for the measured IRF reporter of Cc1ccc(CN2CCN(N=Cc3c4ccccc4cc4ccccc34)CC2)cc1 , can you help?
1.37

Looking for the measured IRF reporter of CC(=O)Nc1ccc(CC(=O)N2C3C=CCC2CC3)cc1 (stereo not given) , can you help?
1.23

Looking for the measured IRF reporter of O=C(OC(=Cc1nccn1Cc1ccc(Cl)cc1)c1ccccc1)c1ccccc1 , can you help?
1.36

Looking for the measured IRF reporter of COc1ccc(C=C(NC(=O)c2ccccc2)C(=O)NCCC(=O)OCc2ccccc2)cc1 , can you help?
1.4

Looking for the measured IRF reporter of c1ccc(-n2nnnc2Sc2ncnc3sc4c(c23)CCCC4)cc1 , can you help?
0.349

Looking for the measured IRF reporter of CCOC(=O)Nc1nc(C)c(C(C)=O)s1 , can you help?
1.35

---

test system: RAW-Dual (murine macrophage reporter line); test: IRF reporter (Lucia luciferase) activity fold change vs agonist alone; higher = enhanced IRF activity; conditions: modulator concentration 10 µM; agonist: LPS 0.1 ug/mL
For each of the compounds below, state its IRF reporter.

Looking for the measured IRF reporter of Cc1cc(N2CCCC2)nc(Nc2ccc(NC(=O)CC(C)C)cc2)n1 , can you help?
1.3

Looking for the measured IRF reporter of CC(C)c1ccc(OCC(=O)NCc2nnc3n2CCC(C(F)(F)F)C3)cc1 (stereo not drawn) , can you help?
1.1

Looking for the measured IRF reporter of CC(C)CSc1nnc2c(n1)[nH]c1ccccc12 , can you help?
1.05

Looking for the measured IRF reporter of Oc1nc(O)nc(N(c2ccccc2)c2ccccc2)n1 , can you help?
1.09

Looking for the measured IRF reporter of Cc1ccc(Nc2nc(N3CCOCC3)nc(N3CCN(c4ccccc4)CC3)n2)cc1 , can you help?
1.4

Looking for the measured IRF reporter of CCOC(=O)C1C(=O)NC(SCC(N)=O)=C(C#N)C1c1ccccc1OCC (stereo not drawn) , can you help?
1.25

Looking for the measured IRF reporter of CC1CN(Cc2ccccn2)CCC1=O (stereo not drawn) , can you help?
1.58

Looking for the measured IRF reporter of Cc1cc(OCC(=O)NNC(=O)COc2ccc(Br)cc2Br)cc(C)c1Cl , can you help?
0.987

Looking for the measured IRF reporter of CCc1c(C)[nH]c2c1C(=O)C(CN1CCOCC1)CC2.Cl (stereo not drawn) , can you help?
1.5

Looking for the measured IRF reporter of CCCCCCCCCCC[C@@H](C[C@@H]1OC(=O)[C@H]1CCCCCC)OC(=O)[C@H](CC(C)C)NC=O , can you help?
0.927

Looking for the measured IRF reporter of CN1CCN(c2nc3c(=O)[nH]cnc3n2C2OC(CO)C(O)C2O)CC1 (stereo not drawn) , can you help?
1.22

Looking for the measured IRF reporter of Cc1nc(-c2ccc(S(=O)(=O)N3C4CCC3CC(Oc3cccnc3)C4)cc2)co1 (stereo not drawn) , can you help?
1.14

Looking for the measured IRF reporter of CCOC(=O)C1=C(C)NC(C)=C(C(=O)OC)C1c1ccco1 (stereo not drawn) , can you help?
1.14

Looking for the measured IRF reporter of CN(C)c1ccc(C=C2C(=O)C(=O)c3ccccc32)cc1Br , can you help?
1

Looking for the measured IRF reporter of Cn1ccnc1Sc1nc(Nc2cccc(Cl)c2)nc(N2CCOCC2)n1 , can you help?
1.24

Looking for the measured IRF reporter of Cl.N=C(N)NC(=O)c1nc(Cl)c(N)nc1N , can you help?
1.4

Looking for the measured IRF reporter of S=C(NCCN1CCOCC1)Nc1ccc(Cl)cc1 , can you help?
1.22

Looking for the measured IRF reporter of NCCNc1ccc(NCCN)c2c1C(=O)c1ccncc1C2=O.O=C(O)/C=C\C(=O)O.O=C(O)/C=C\C(=O)O , can you help?
1.36

Looking for the measured IRF reporter of O=C(CSc1ccc(F)cc1)N1CCn2nc3c(c2C1)CCC3 , can you help?
1.03

Looking for the measured IRF reporter of CC(C)c1ccc2oc3nc(N)c(C(=O)O)cc3c(=O)c2c1 , can you help?
1.28

Looking for the measured IRF reporter of Cl.O=C1CN2Cc3c(ccc(Cl)c3Cl)NC2=N1 , can you help?
1.24

Looking for the measured IRF reporter of Cc1ccc(CSCCNC(=O)CN(c2cccc(C)c2)S(C)(=O)=O)cc1 , can you help?
1.44

Looking for the measured IRF reporter of CCCCOc1ccc(OCCCN2CCOCC2)cc1.Cl , can you help?
0.852

---

tested on: RAW-Dual (murine macrophage reporter line); test: NF-kB reporter (SEAP) activity fold change vs agonist alone; higher = enhanced NF-kB activity; settings: modulator concentration 10 µM; agonist: MPLA […]
For each of the compounds below, state its NF-kB reporter.
Respond with the number and no other words.

Report NF-kB reporter for Cc1cccc(NC(=O)CSc2nc(N3CCCCC3)nc3ccccc23)c1 tested on RAW-Dual (murine macrophage reporter line).
0.98

Report NF-kB reporter for O=C(Nc1cccc(C(F)(F)F)c1)Nc1cnn(CC2COc3ccccc3O2)c1 (stereo unspecified) tested on RAW-Dual (murine macrophage reporter line).
1.1

Report NF-kB reporter for CC(=O)OC1(C(C)=O)CCC2C3CC(C)C4=CC(=O)CCC4(C)C3CCC21C (stereo unspecified) tested on RAW-Dual (murine macrophage reporter line).
1.29

Report NF-kB reporter for COc1ccc(N(CC(=O)Nc2ccccc2C(F)(F)F)S(C)(=O)=O)cc1 tested on RAW-Dual (murine macrophage reporter line).
0.795

Report NF-kB reporter for CSCCC(NC(=O)C(=Cc1ccccc1)NC(=O)c1ccco1)C(=O)O (stereo unspecified) tested on RAW-Dual (murine macrophage reporter line).
0.936

Report NF-kB reporter for Cc1ccc(C2=NN3C(=N)C(=Cc4c[nH]c5ccccc45)C(=O)N=C3S2)cc1 tested on RAW-Dual (murine macrophage reporter line).
0.932

Report NF-kB reporter for Nc1ncnc2c1ncn2[C@@H]1O[C@H](CO)[C@@H](O)[C@H]1O tested on RAW-Dual (murine macrophage reporter line).
1.17

Report NF-kB reporter for O=C1CCCc2[nH]ccc21 tested on RAW-Dual (murine macrophage reporter line).
1.01

Report NF-kB reporter for CC(=NNC(=O)COc1ccc(Cl)cc1[N+](=O)[O-])c1cccc(Br)c1 tested on RAW-Dual (murine macrophage reporter line).
0.89

Report NF-kB reporter for COc1ccc2c3c([nH]c2c1)C(=O)CCC3 tested on RAW-Dual (murine macrophage reporter line).
1.12

Report NF-kB reporter for Cc1c(N=Cc2cc([N+](=O)[O-])ccc2O)c(=O)n(-c2ccccc2)n1C tested on RAW-Dual (murine macrophage reporter line).
0.907

---

test system: RAW-Dual (murine macrophage reporter line); assay: NF-kB reporter (SEAP) activity fold change vs agonist alone; higher = enhanced NF-kB activity; details: modulator concentration 10 µM; agonist: MPLA […]
assay.metric: NF-kB reporter
Respond with the number and no other words.

Looking for the measured NF-kB reporter of CCN(Cc1ccncc1)C(=O)C(CO)c1ccccc1 (stereo unspecified) , can you help?
1.04

Looking for the measured NF-kB reporter of COc1ccccc1-c1cc(-c2ccccc2)nc(SCC(N)=O)c1C#N , can you help?
0.928

Looking for the measured NF-kB reporter of O=C(Cc1ccc(F)cc1)NCC1CCCN1c1ccccc1 (stereo unspecified) , can you help?
1.09

Looking for the measured NF-kB reporter of C=CCc1ccc(O)c(OC)c1 , can you help?
1.14

Looking for the measured NF-kB reporter of CC(=O)Nc1ccc(S(=O)(=O)N2CCC(Oc3cc(C)nc(C)n3)C2)cc1 (stereo unspecified) , can you help?
1.04

Looking for the measured NF-kB reporter of Cc1ccc(CNC(=O)CN(c2cccc3ccccc23)S(C)(=O)=O)cc1 , can you help?
0.957

---

tested on: RAW-Dual (murine macrophage reporter line); assay: viability score (confluency relative to resting cells, overnight) (fraction); higher = more viable, active = viable (0.7 or more); conditions: modulator concentration 10 µM
assay.metric: viability score
Respond with the number and no other words.

Looking for the measured viability score of CCN(CC)CCOC(=O)C(c1ccccc1)c1ccccc1 [Prestw-75] , can you help?
0.91

Looking for the measured viability score of CC(C)COc1ccc(CNC(=O)N(Cc2ccc(F)cc2)C2CCN(C)CC2)cc1.CC(C)COc1ccc(CNC(=O)N(Cc2ccc(F)cc2)C2CCN(C)CC2)cc1.O=C(O)[C@H](O)[C@@H](O)C(=O)O , can you help?
0.0597

Looking for the measured viability score of Cc1ccc2nc(C)c(NC(=O)c3ccc4ccccc4n3)c(=O)n2c1 , can you help?
0.994

Looking for the measured viability score of CCc1cnn2c(NCc3ccc[n+]([O-])c3)cc(N3CCCC[C@H]3CCO)nc12 , can you help?
0.0417

Looking for the measured viability score of COc1ccc(C2(C#N)CCC(C(=O)O)CC2)cc1OC1CCCC1 (stereo not drawn) , can you help?
1.02

Looking for the measured viability score of N#Cc1cc2c(nc1N1CC(Cn3nc(C4CC4)ccc3=O)C1)CCC2 , can you help?
0.946

Looking for the measured viability score of Cc1cc(C)c(S(=O)(=O)N2CCN(C(=O)N(C)C)CC2)c(C)c1 , can you help?
0.564

Looking for the measured viability score of O=S(=O)(Oc1cccc2ccccc12)c1ccc(F)cc1 , can you help?
0.999

Looking for the measured viability score of COc1cc(C(C)=O)ccc1OCCCN1CCC(c2noc3cc(F)ccc23)CC1 , can you help?
0.991

Looking for the measured viability score of Oc1ccc(Nc2nc(Nc3ccc(O)cc3)nc(N3CCOCC3)n2)cc1 , can you help?
0.757

Looking for the measured viability score of O=c1c(O)c(-c2ccc(O)cc2O)oc2cc(O)cc(O)c12 , can you help?
1

Looking for the measured viability score of c1ccc(Nc2nc(Nc3ccccc3)nc(N3CCCCC3)n2)cc1 , can you help?
0.995

Looking for the measured viability score of O=C(O)C1C(c2ccccc2)C(C(=O)OCc2ccccc2)C1c1ccccc1 (stereo not drawn) , can you help?
1.01

Looking for the measured viability score of CCC(C(=O)Nc1cc(Cl)cc(Cl)c1)c1ccccc1 (stereo not drawn) , can you help?
0.991

Looking for the measured viability score of Br.Fc1ccc(-c2csc(Nc3ccc4c(c3)OCO4)n2)cc1 , can you help?
0.999

Looking for the measured viability score of O=C(CCN1C(=O)c2cccc([N+](=O)[O-])c2C1=O)Nc1ccc(Cl)cc1 , can you help?
1.01

Looking for the measured viability score of Cc1nonc1OC(C)CNc1ccc([N+](=O)[O-])cc1 (stereo not drawn) , can you help?
0.998

Looking for the measured viability score of CCOC(=O)C1=C(C)NC(C)=C(C(=O)OCC)C1c1ccc(OC)cc1OC , can you help?
1

Looking for the measured viability score of Ic1ccc2c3ccc(I)cc3c3[nH]c(-c4ccccc4)nc3c2c1 , can you help?
0.995

Looking for the measured viability score of O=C(NC1CCCCC1)N(Cc1cnc2ccccn12)c1ccccc1 , can you help?
0.995

Looking for the measured viability score of CCCOc1ccc(C(=O)OCCN(CC)CC)cc1N.Cl , can you help?
1

Looking for the measured viability score of CCN(C=Nc1sc2c(c1C#N)CC(C)(C)NC2(C)C)CC , can you help?
0.992

Looking for the measured viability score of CC(=O)Nc1ccc(C(=O)Nc2ccccc2)c(NC(C)=O)c1 , can you help?
0.997

Looking for the measured viability score of O=C(NC1CCN(c2ncnc3c2CCCC3)CC1)c1ccc(=O)[nH]c1 , can you help?
1.02

Looking for the measured viability score of CCOC(=O)c1ccc(N2C(=O)CC(N3CCN(c4ccc([N+](=O)[O-])cc4)CC3)C2=O)cc1 (stereo not drawn) , can you help?
0.997

Looking for the measured viability score of Cc1c(C(=O)Nc2cccc3ccccc23)cccc1[N+](=O)[O-] , can you help?
0.633

Looking for the measured viability score of COC(=O)[C@]12CCC(C)(C)C[C@H]1[C@H]1C(=O)C=C3[C@@]4(C)C=C(C#N)C(=O)C(C)(C)[C@@H]4CC[C@@]3(C)[C@]1(C)CC2 , can you help?
0.246

Looking for the measured viability score of COCC(C)(CNS(=O)(=O)c1ccccc1Br)OC (stereo not drawn) , can you help?
0.993

Looking for the measured viability score of Cc1cc(=O)[nH]c(=S)[nH]1 , can you help?
1

Looking for the measured viability score of COc1ccc(-c2csc(NC(=O)C3CC3)n2)cc1 , can you help?
0.988

Looking for the measured viability score of Brc1ccc2[nH]cc(-c3nnc4ccc5ccccc5n34)c2c1 , can you help?
0.973

Looking for the measured viability score of COC1CCN(c2ccc(C(=O)N3CC(n4cc(COc5ccccc5)nn4)C3)cc2)C1 (stereo not drawn) , can you help?
0.922

Looking for the measured viability score of CCOc1ccccc1OCCCCOc1cccc(Br)c1 , can you help?
1

Looking for the measured viability score of CC(=NOCCCl)C(C)=NOCCCl , can you help?
0.585

Looking for the measured viability score of CN1C(=O)C(=Cc2cccc3ccccc23)SC1=S , can you help?
0.998

Looking for the measured viability score of Cc1ccccc1C(=O)Nc1ccc(C(=O)N2CCCC(N(C)C)c3ccccc32)cc1 (stereo not drawn) , can you help?
1

Looking for the measured viability score of NCC(O)(c1ccc(Cl)cc1)c1ccc(Cl)cc1 , can you help?
0.996

Looking for the measured viability score of CCn1cc(C(=O)O)c(=O)c2cc(F)c(N3CCN(C)CC3)cc21.CS(=O)(=O)O , can you help?
0.986

Looking for the measured viability score of CCCC(=O)Nc1ccc(N2CCOCC2)c(Cl)c1 , can you help?
1

Looking for the measured viability score of Cn1cnc2c(F)c(Nc3ccc(Br)cc3F)c(C(=O)NOCCO)cc21 , can you help?
0.248

Looking for the measured viability score of Cc1ccc(C2=NN3C(=N)C(=Cc4c[nH]c5ccccc45)C(=O)N=C3S2)cc1 , can you help?
1.01

Looking for the measured viability score of CC(C)(C)C1(O)CC(C(F)(F)F)=NN1C(=O)c1cccc([N+](=O)[O-])c1 (stereo not drawn) , can you help?
0.974

Looking for the measured viability score of Clc1ccc(Nc2nnc(Cc3ccncc3)c3ccccc23)cc1 [Prestw-1358] , can you help?
0.997
